FYI, the data here is from the supplement of paper PMC10567573.

B1: CDC25A (parent)
chain: KKFRTKSRTWAGEKSKREMYSRLK

variants of: B1; assay: protein stability index of a GFP-peptide fusion (GPS, HEK-293T) (PSI 1-6); higher = more stable; conditions: c terminus: a fixed tail appended;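 also: lentivirally expressed fusions sorted by FACS into six bins by GFP to DsRed ratio, PSI derived from sequencing read proportions per bin multiplied by bin number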
Measured Endpoint: protein stability index
Answers are plain numbers.

Example entries begin here.
KKFRCKSRTWAGEKSKREMYSRLK [T5C] = 2.87
KKFRTKSRTWAAEKSKREMYSRLK [G12A] = 3.21
KKFRTKSRTWAGERSKREMYSRLK [K14R] = 2.61

For each of the variants below, state protein stability index.
1. KKKRTKSRTWAGEKSKREMYSRLK [F3K]
2. KKFRTKSRTWAGEKYKREMYSRLK [S15Y]
3. KKFRTKSRTWAFEKSKREMYSRLK [G12F]
4. EKFRTKSRTWAGEKSKREMYSRLK [K1E]
5. KKFRTKSRTWAGEKWKREMYSRLK [S15W]
6. KKFRTKSRTWAGEKSKRDMYSRLK [E18D]

A.
1. 3.16
2. 1.94
3. 2.68
4. 3.74
5. 1.3
6. 3.12

For each of the variants below, state protein stability index.
1. KKFRTKSRYWAGEKSKREMYSRLK [T9Y]
2. KKFRTKSRTWAGEKSKREMYSRKK [L23K]
3. KKFRTKSRTWAGEKSKREMYSCLK [R22C]
4. KKFRTKSPTWAGEKSKREMYSRLK [R8P]
5. KKFRTKSRHWAGEKSKREMYSRLK [T9H]
6. SKFRTKSRTWAGEKSKREMYSRLK [K1S]

A.
[3, 3.84, 3.17, 3.21, 2.29, 3.22]
